- Target: Phosphatidylinositol 4,5-bisphosphate 3-kinase catalytic subunit delta isoform (Homo sapiens, UniProt O00329)
- Sequence (O00329 whole entry): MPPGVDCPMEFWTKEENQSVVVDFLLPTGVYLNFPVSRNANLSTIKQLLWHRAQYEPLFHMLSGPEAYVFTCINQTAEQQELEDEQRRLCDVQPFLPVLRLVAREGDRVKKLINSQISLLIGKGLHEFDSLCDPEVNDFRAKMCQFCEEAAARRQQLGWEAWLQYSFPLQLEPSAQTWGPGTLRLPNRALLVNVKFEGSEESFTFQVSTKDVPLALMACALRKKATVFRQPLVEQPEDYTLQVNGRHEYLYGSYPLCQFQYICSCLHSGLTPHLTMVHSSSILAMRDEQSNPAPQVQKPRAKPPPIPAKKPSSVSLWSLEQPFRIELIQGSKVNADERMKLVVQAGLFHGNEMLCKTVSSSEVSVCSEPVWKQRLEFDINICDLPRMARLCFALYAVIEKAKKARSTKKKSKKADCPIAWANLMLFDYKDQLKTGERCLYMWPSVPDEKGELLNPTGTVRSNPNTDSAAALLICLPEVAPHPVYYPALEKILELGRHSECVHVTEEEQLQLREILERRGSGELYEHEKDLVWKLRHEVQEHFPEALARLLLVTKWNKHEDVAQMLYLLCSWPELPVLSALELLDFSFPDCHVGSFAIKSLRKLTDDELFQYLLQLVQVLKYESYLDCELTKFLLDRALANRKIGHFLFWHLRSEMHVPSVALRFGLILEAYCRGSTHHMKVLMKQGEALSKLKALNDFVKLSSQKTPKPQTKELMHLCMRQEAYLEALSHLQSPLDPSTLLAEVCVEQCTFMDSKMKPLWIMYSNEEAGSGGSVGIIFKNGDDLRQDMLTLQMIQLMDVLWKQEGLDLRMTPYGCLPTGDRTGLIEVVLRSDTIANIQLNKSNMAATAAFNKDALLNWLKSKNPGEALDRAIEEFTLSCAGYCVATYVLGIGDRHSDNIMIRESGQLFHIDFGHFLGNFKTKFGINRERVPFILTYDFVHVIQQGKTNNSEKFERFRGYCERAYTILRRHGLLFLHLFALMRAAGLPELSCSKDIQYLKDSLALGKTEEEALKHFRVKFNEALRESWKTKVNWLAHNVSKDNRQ
- Experimental protocol: Scintillation Proximity Assay: PI3Kδ:[γ-33P]ATP (10 mCi/mL) and Wheat Germ Agglutinin (WGA) YSi SPA Scintillation Beads was purchased from Perkin-Elmer (Waltham, Mass.). Lipid kinase substrate, D-myo-Phosphatidylinositol 4,5-bisphosphate (PtdIns(4,5)P2)D (+)-sn-1,2-di-O-octanoylglyceryl, 3-O-phospho linked (PIP2), CAS 204858-53-7, was purchased from Echelon Biosciences (Salt Lake City, Utah). PI3Kδ (p110δ/p85α) Recombinant Human Protein was purchased from Eurofins (St Charles, Mo.). ATP, MgCl2, DTT, EDTA, MOPS and CHAPS were purchased from Sigma-Aldrich (St. Louis, Mo.).The kinase reaction was conducted in polystyrene 384-well Greiner Bio-one white plate from Thermo Fisher Scientific in a final volume of 25 μL. Inhibitors were first diluted serially in DMSO and added to the plate wells before the addition of other reaction components. The final concentration of DMSO in the assay was 2%. The PI3Kδ assay was carried out at room temperature in 20 mM MOPS, pH 6.7, 10 mM MgCl2, 5 mM DTT and CHAPS 0.03%. Reactions were initiated by the addition of ATP, the final reaction mixture consisted of 20 μM PIP2, 2 μM ATP, 0.5 μCi [γ-33P] ATP, 3.4 nM PI3Kδ. Reactions were incubated for 120 min and terminated by the addition of 40 μL SPA beads suspended in quench buffer: 163 mM potassium phosphate pH 7.8, 20% glycerol, 25 mM EDTA. The final concentration of SPA beads is 1.0 mg/mL. After the plate sealing, plates were shaken overnight at room temperature and centrifuged at 1500 rpm for 10 min, the radioactivity of the product was determined by scintillation counting on Topcount (Perkin-Elmer).
pIC50: −log10 of the molar value.
Measured attribute: pIC50

| Input smiles | Result |
| --- | --- |
| Cc1ccc(S(=O)(=O)CC2CCC2)cc1-c1cnc2c(N)ncnn12 | > 5.70 |
